The reported numbers originate from PubChem BioAssay (NCI).

System: OVCAR-5 ovarian
Assay method text: NCI-60 one-dose screen, 48 h
Condition details: 10 µM unless noted
Description: Growth inhibition of the OVCAR-5 human tumor cell line is measured as a screen for anti-cancer activity. Cells are grown in 96 well plates and exposed to the test compound for 48 hours. Compounds are tested at a single concentration, which is 10^-5 M for most compounds. The reported endpoint is percent growth (GI% or GIPRCNT), where numbers from 0 - 100% represent growth inhibition, and numbers from -100% - 0 represent cell death. For example, a value of 40 represents 60% growth inhibition. […]
The panel holds about 83,000 compounds, 20% with a hit somewhere; the sample as a whole holds those more often. The source made the active and inactive calls. Rule for the calls: active = growth percent below 10; inactive = the rest.
The reply should be one of these categories: class 1 = active, class 0 = inactive

Q) Check the results log: what was the call for `NS(=O)(=O)c1ccc(CCn2c(SCC(=O)N/N=C/c3cc4ccccc4[nH]3)nc3ccccc3c2=O)cc1` ?
A) class 0

Q) Check the results log: what was the call for `COc1cc(-c2nc(-c3ccc(-c4nc5ccc(F)cc5[nH]4)cc3)no2)cc(OC)c1OC` ?
A) class 0

Q) Check the results log: what was the call for `NC(N)=NC1CCCCC1` ?
A) class 0

Q) Check the results log: what was the call for CCC1N=C(N)N=C(N)N1c1ccc(Cl)cc1 (centres undefined) ?
A) class 0

Q) Check the results log: what was the call for `CC(C)[C@@H]1C=C2CC[C@H]3[C@](C)(CN)CCC[C@]3(C)[C@H]2CC1` ?
A) class 0

Q) Check the results log: what was the call for `Nc1c(C(=O)C[C@@H](N)CO)ccc2c1C(=O)CCO2` ?
A) class 0

Q) Check the results log: what was the call for `COc1ccc(/C=C/c2nc(NCCCN(C)C)c3ccccc3n2)cc1` ?
A) class 0

Q) Check the results log: what was the call for `COc1cccc(/C=N\Nc2ccc([N+](=O)[O-])cn2)c1O` ?
A) class 0

Q) Check the results log: what was the call for CCN1C(=O)N(CC)C2C1NN=c1s/c(=C\c3ccc(Br)cc3)c(=O)n12 (centres undefined) ?
A) class 0

Q) Check the results log: what was the call for `COc1cc(OC)cc(-c2ccc(-c3ccc(C(=N)N)s3)s2)c1` ?
A) class 1

Q) Check the results log: what was the call for `COc1nccc2c(Sc3ccccc3)nc(N)nc12` ?
A) class 0

Q) Check the results log: what was the call for `O=C(c1ccc(OCCN2CCCCC2)cc1)c1c(-c2ccc(O)cc2)sc2cc(O)ccc12` ?
A) class 0

Q) Check the results log: what was the call for C=C1C[C@@]2(C)C(CC[C@]3(C)C2CC=C2C4CC(C)(C)C[C@@H](OC(=O)/C(C)=C\C)[C@]4(C(=O)O)CC[C@]23C)C(C)(C)C1=O (some centres undefined) ?
A) class 1

Q) Check the results log: what was the call for `C#Cc1cccc(Nc2nc3cc([N+](=O)[O-])ccc3nc2Nc2ccc(O)cc2)c1` ?
A) class 0

Q) Check the results log: what was the call for `Cc1ccncc1NC=O` ?
A) class 0

Q) Check the results log: what was the call for `O=C(N/N=C/c1ccc([N+](=O)[O-])cc1)c1ccccc1Nc1ccnc(C(F)(F)F)c1` ?
A) class 0

Q) Check the results log: what was the call for `C=CCCCCOc1cccc(/C=C2\N=C3SCCCN3C2=O)c1` ?
A) class 0

Q) Check the results log: what was the call for C[C@@H]1CC2C3CCC4=CC(=O)C=C[C@]4(C)[C@@]3(Cl)[C@@H](O)C[C@]2(C)[C@@]1(OC(=O)c1ccco1)C(=O)CCl (some centres undefined) ?
A) class 0

Q) Check the results log: what was the call for `O=C(Nc1ccncc1)C(=O)c1cn(S(=O)(=O)c2cccc(Cl)c2F)c2ccccc12` ?
A) class 0

Q) Check the results log: what was the call for `COc1cc(/C=N/NC(=O)Cn2c(-c3ccc(C)o3)nc3ccccc32)ccc1OCc1ccccc1` ?
A) class 0

Q) Check the results log: what was the call for COc1ccc(C2NC(=O)c3cc4c(cc3N2)OCO4)cc1 (centres undefined) ?
A) class 0

Q) Check the results log: what was the call for `CCCCn1cnc2c(SCc3ccc([N+](=O)[O-])cc3)nc(N)nc21` ?
A) class 0

Q) Check the results log: what was the call for `CCCCCCCCCCCCCCCCCC(=O)[O][Sn]([CH2]CCC)([CH2]CCC)[CH2]CCC` ?
A) class 1

Q) Check the results log: what was the call for `Oc1ccc(-c2nc3ccccc3s2)cc1CN(Cc1ccccn1)Cc1ccccn1` ?
A) class 0

Q) Check the results log: what was the call for `CCCCCc1c(C)[nH]c(/C=C2\N=C(c3ccc[nH]3)C=C2Oc2ccc(OC)cc2)c1C` ?
A) class 1

Q) Check the results log: what was the call for CC(C)CCC(=O)[C@@H](C)[C@H]1[C@@H](OC2OCC(O)C(O)C2NS(C)(=O)=O)C[C@H]2[C@@H]3CC=C4C[C@@H](O)CC[C@]4(C)[C@H]3CC[C@]12C (some centres undefined) ?
A) class 0

Q) Check the results log: what was the call for `CCCCCCCC/C=C/CCCCCCCC1=NC(C)(C)CN1c1ccccc1` ?
A) class 0

Q) Check the results log: what was the call for CO[C@H](C(=O)[C@@H](O)[C@@H](C)O)[C@@H]1Cc2cc3cc(O[C@H]4C[C@@H](O[C@H]5C[C@@H](O)[C@H](O)C(C)O5)[C@H](O)C(C)O4)c(C)c(O)c3c(O)c2C(=O)[C@H]1O[C@H]1C[C@@H](O[C@H]2C[C@@H](O[C@H]3C[C@](C)(O)C(=O)C(C)O3)[C@@H](O)C(C)O2)[C@H](O)C(C)O1 (some centres undefined) ?
A) class 0

Q) Check the results log: what was the call for `O=C(/C=C/c1ccco1)c1ccccc1O` ?
A) class 0

Q) Check the results log: what was the call for `CNC(=O)c1c(NC(=O)c2ccc(C(C)C)cc2)sc2c1CCC(=O)C2` ?
A) class 1

Q) Check the results log: what was the call for `O=C(O)CSc1ccc(NCc2oc(CO)cc(=O)c2O)cc1` ?
A) class 0

Q) Check the results log: what was the call for COc1cc2c(c(OC)c1O)C(=O)C(OC)C(c1ccc(O)c(O)c1)O2 (centres undefined) ?
A) class 0

Q) Check the results log: what was the call for `O=C(N/N=C\c1cc(Br)ccc1O)c1ccncc1` ?
A) class 0

Q) Check the results log: what was the call for `O=C(Nc1ccc([N+](=O)[O-])cc1)c1cc2ccccc2cc1O` ?
A) class 0

Q) Check the results log: what was the call for CC1=CC(=O)OC1C/C=C(\C)CCC1[C@@]2(C)CCC[C@@](C)(C(=O)O)C2CC[C@@]1(C)O (some centres undefined) ?
A) class 0

Q) Check the results log: what was the call for COc1cc(NCCC2CCCCN2)c2ncccc2c1OC (centres undefined) ?
A) class 0

Q) Check the results log: what was the call for `COc1ccc(-c2cc(C(=O)Nc3ccc(Br)cc3)nc3[nH]c(=O)sc23)cc1` ?
A) class 0

Q) Check the results log: what was the call for Cc1ccc(C(CN(C)C)C(=O)c2ccccc2)cc1 (centres undefined) ?
A) class 0

Q) Check the results log: what was the call for `ClCc1c(Cl)c(Cl)c(Cl)c(CCl)c1Cl` ?
A) class 0
